Where these numbers come from: patent US20260258084A1

# reported pSTAT3 (nM); entries follow
- study-system: T1, IL-23 receptor on the surface of HEK-Blue IL-23 cells (UniProt Q5VWK5 24-629, limits assumed)
- T1 sequence (looked up): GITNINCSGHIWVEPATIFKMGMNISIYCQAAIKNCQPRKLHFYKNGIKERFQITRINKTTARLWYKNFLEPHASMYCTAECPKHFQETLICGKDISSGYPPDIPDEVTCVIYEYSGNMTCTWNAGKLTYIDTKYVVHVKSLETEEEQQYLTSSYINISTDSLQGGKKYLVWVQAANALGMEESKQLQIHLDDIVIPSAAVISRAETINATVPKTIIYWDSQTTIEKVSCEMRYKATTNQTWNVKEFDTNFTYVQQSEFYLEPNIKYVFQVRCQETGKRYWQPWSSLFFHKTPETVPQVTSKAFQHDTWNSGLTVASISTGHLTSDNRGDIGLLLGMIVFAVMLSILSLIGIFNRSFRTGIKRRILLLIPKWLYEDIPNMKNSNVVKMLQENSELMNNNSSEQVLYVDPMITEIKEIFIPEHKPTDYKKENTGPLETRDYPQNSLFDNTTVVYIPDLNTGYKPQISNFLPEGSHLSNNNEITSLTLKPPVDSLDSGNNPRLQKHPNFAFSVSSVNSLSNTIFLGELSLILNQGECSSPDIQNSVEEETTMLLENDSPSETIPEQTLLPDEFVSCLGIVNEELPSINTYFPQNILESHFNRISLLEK
- assay: cell-based or functional assay
Starred links: 1 amine or outer side, 2 acyl side, 3 side chain; linkers in the order of their positions; H or OH if unused. Positions of bridges follow the written chain, without caps; N, C: chain ends. Non-standard residues stand in square brackets, D forms with d. Yde = (2S)-2-amino-3-[4-[2-(dimethylamino)ethoxy]phenyl]propanoic acid, CN(C)CCOc1ccc(C[C@H](N[*:1])C(=O)[*:2])cc1; NdmK = (2S)-6-amino-2-(dimethylamino)hexanoic acid, CN(C)[C@@H](CCCCN[*:3])C(=O)[*:2]; Trp(7-Me) = Cc1cccc2c(C[C@H](N)C(=O)O)c[nH]c12; αMeLys(Me2) = CN(C)CCCC[C@](C)(N)C(=O)O; 2Nal = N[C@@H](Cc1ccc2ccccc2c1)C(=O)O; εLys = N[C@@H](CCCCN[*:1])C(=O)[*:2]; 3Pal = N[C@@H](Cc1cccnc1)C(=O)O; Thp = NC1(C(=O)O)CCOCC1; Aib = CC(C)(N)C(=O)O; Ava = NCCCCC(=O)O; Sar = CNCC(=O)O

Examples with their reported pSTAT3 (nM) follow.
- binder: "[Ava]C[NdmK]WK(Ac)C[Yde][2Nal][αMeLys(Me2)]EN[3Pal][Sar]-NH2 (lactam N-10; disulfide 2-6) [Compound of SEQ ID NO: 36]"
  property-name: "pSTAT3 (nM)"
  recorded-result: "13.9 nM"
- binder: "[Ava]C[εLys](Ac)[Trp(7-Me)]K(Ac)C[Yde][2Nal][Thp]EN[3Pal][Sar]-NH2 (lactam N-10; disulfide 2-6; also: Cys2 carboxyl joined to epsilon-NH2 of Lys3 (isopeptide bond), Lys3 alpha-N acetylated) [Compound of SEQ ID NO: 66]"
  property-name: "pSTAT3 (nM)"
  recorded-result: "0.15 nM"

Lab note: next binder to report on.
Exercise: Consider the binder [Ava]CNT[Trp(7-Me)]K(Ac)C[Yde][2Nal][Aib]ENH[Sar]-NH2 (lactam N-11; disulfide 2-7; SMILES CC(=O)NCCCC[C@@H]1NC(=O)[C@H](Cc2c[nH]c3c(C)cccc23)NC(=O)[C@H]([C@@H](C)O)NC(=O)[C@H](CC(N)=O)NC(=O)[C@@H]2CSSC[C@H](NC1=O)C(=O)N[C@@H](Cc1ccc(OCCN(C)C)cc1)C(=O)N[C@@H](Cc1ccc3ccccc3c1)C(=O)NC(C)(C)C(=O)N[C@H](C(=O)N[C@@H](CC(N)=O)C(=O)N[C@@H](Cc1c[nH]cn1)C(=O)N(C)CC(N)=O)CCC(=O)NCCCCC(=O)N2) [Compound of SEQ ID NO: 45] and give its measured pSTAT3 (nM).
Solution: 0.67 nM
